B1: RAB22A (parent)
chain: FVEDSFDPNINPTIGASFMTKTVQ

# Variants of: B1
# ASSAY_PROCEDURE: protein stability index of a GFP-peptide fusion (GPS, HEK-293T) (PSI 1-6); higher = more stable;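 note: lentivirally expressed fusions sorted by FACS into six bins by GFP to DsRed ratio, PSI derived from sequencing read proportions per bin multiplied by bin number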
# CONDITION_SUMMARY: c terminus: a fixed tail appended
OBSERVABLE: protein stability index

>>> meas_value("P8R")
2.63
>>> meas_value("N9E")
2.47
>>> meas_value("A16G")
2.56
>>> meas_value("I10R")
2.1
>>> meas_value("G15F")
2.33
>>> meas_value("S17R")
2.51
>>> meas_value("S5L")
1.97
>>> meas_value("D7K")
2.09

The reported protein stability index of the variant "F1N" was 4.44

Memo: "S17G" , reported protein stability index: 2.31
